# Test system: DeltatarO mutant
# Assay Text: S. aureus survival, RN4220 and DeltatarO strains – OD600, teichoic acid synthesis inhibitors, primary screen (AID 463173)
# Measurement Conditions: S. aureus RN4220 wild type/DeltatarO growth, OD600, 18 h, active compounds read low, screened at 18.75 µg/mL (by protocol)
Hit rate of the full screen: of about 52,000 compounds, about 4,300 (8.3%) were called active. The sample as a whole holds a higher share of actives than the screen did.
Collected survival values appear next to each entry.
Please reply with the bare figure in % and do not write the unit itself.

{"Compound": "CCN1CCC(N(Cc2ccc3c(c2)OCO3)C(=O)Nc2cc(Cl)ccc2C(=O)OC)CC1", "Tgt": "DeltatarO mutant", "Outcome Measure": "survival", "Unit Of Measure": "%", "Reported Result": 126}
{"Compound": "CCOC(=O)c1ccc(NC(=O)Cn2c(=O)cc(C)c3c(C)nn(-c4ccc(CC)cc4)c32)cc1", "Tgt": "DeltatarO mutant", "Outcome Measure": "survival", "Unit Of Measure": "%", "Reported Result": 71}
{"Compound": "CN(C)c1ccc(CNC(=O)c2cnc3sc(N4CCCC4)nn3c2=O)cc1", "Tgt": "DeltatarO mutant", "Outcome Measure": "survival", "Unit Of Measure": "%", "Reported Result": 67}
{"Compound": "CCCC1N=C2c3ccccc3N=C(SCC(=O)NCCc3ccc(Cl)cc3)N2C1=O (stereo not given)", "Tgt": "DeltatarO mutant", "Outcome Measure": "survival", "Unit Of Measure": "%", "Reported Result": 93}

Switching to the query record.
Identify measured survival associated with "COC(=O)c1cc(-c2ccc(Cl)cc2)c2c(=O)[nH]c(=O)n(C)c2n1"
92
